meta.source: PubChem BioAssay AID624255

Form field: inhibition (one value per entry).
Test: T. cruzi intracellular proliferation inhibitors, primary screen, cell-based, beta-gal Tulahuen parasites, NIH3T3 host, luminescence (AID 624255)
Details: T. cruzi beta-gal in NIH3T3, GalScreen luminescence, 90 h; at 8.34 µM; hits give high values
Among all 77,000 compounds or so, about 4,600 (6%) were called active. Another 1% or so got no clear call; they are omitted. This excerpt belongs to a sample that is enriched for actives.

smilesRepr	inhibition, %
O=C(C1CCC1)N1CC[C@H]2[C@H](CO)Nc3ccc(-c4cccc(F)c4)cc3[C@H]21	92.4
C[C@@H]1CN([C@H](C)CO)C(=O)c2cc(-c3ccc(C#N)cc3)cnc2O[C@@H]1CN(C)C(=O)Nc1ccccc1	33.2
COc1ccccc1S(=O)(=O)N[C@@H]1CC[C@H](CC(=O)N2CCOCC2)O[C@@H]1CO	16.9
O=C(C[C@H]1C=C[C@H](NC(=O)C2CCOCC2)[C@@H](CO)O1)NCC1CC1	-20.7
CNC[C@H]1OCCCC[C@@H](C)Oc2ccc(NC(=O)Nc3ccc(C(F)(F)F)cc3)cc2C(=O)N([C@H](C)CO)C[C@H]1C	69.3
O=C(c1cccnc1)N1C[C@H]2[C@@H](c3ccccc31)[C@H](CO)N2C(=O)C1CCCCC1	19.5
O=C(C[C@H]1C[C@H]2c3cc(NC(=O)Cc4ccncc4)ccc3O[C@H]2[C@@H](CO)O1)NCc1cccc(F)c1	-15.1
O=C(c1cccnc1)N1CC[C@H]2[C@H](CO)Nc3ccc(-c4ccc(F)cc4)cc3[C@H]21	74.7
CO[C@@H]1CN(C)C(=O)c2cc(NC(=O)C3CCC3)ccc2OC[C@H](C)N(Cc2nccs2)C[C@H]1C	-2.54
C[C@H]1CN([C@@H](C)CO)C(=O)c2cc(-c3ccccc3)cnc2O[C@H]1CN(C)C(=O)C1CCOCC1	60.3
Cn1cnc(S(=O)(=O)N2C[C@@H](O)COC[C@H]3O[C@H](CC(=O)N4CCN(c5ccccc5)CC4)CC[C@@H]32)c1	-64.3

----------
Test: T. cruzi intracellular proliferation inhibitors, primary screen, cell-based, beta-gal Tulahuen parasites, NIH3T3 host, luminescence (AID 624255)
Details: T. cruzi beta-gal in NIH3T3, GalScreen luminescence, 90 h; at 8.34 µM
Out of some 77,000 compounds screened, about 4,600 (6%) were called active. About 1% were inconclusive and are not listed.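 How the source made its calls: active means mean inhibition above about 93%, with at least 55% of replicates each passing it (limit read from the data, passing the limit was not always enough); inconclusive means only one of those two conditions holds; inactive means neither condition holds.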 The sample as a whole holds a higher share of actives than the screen did.
Classes used: 1 for active, -1 for inactive

smilesRepr	answerLabel
COc1ccccc1NC(=O)N[C@H]1C=C[C@@H](CC(=O)N[C@@H](C)c2ccccc2)O[C@@H]1CO	-1
COc1ccc(NC(=O)N(C)C[C@H]2OCCCC[C@H](C)Oc3ccc(NS(C)(=O)=O)cc3C(=O)N([C@H](C)CO)C[C@@H]2C)cc1	-1
Cc1ccccc1S(=O)(=O)Nc1ccc2c(c1)C(=O)N(C)[C@H]1CC[C@@H](CC(=O)O)O[C@H]1CO2	-1
COc1ccc(S(=O)(=O)N(C)C[C@H]2Oc3ccc(NC(=O)Nc4ccccc4)cc3CC(=O)N([C@H](C)CO)C[C@@H]2C)cc1	-1
CN(C)CC#Cc1ccc([C@H]2[C@@H](CO)N(C(=O)C3CCC3)[C@H]2C#N)cc1	-1
Cc1ccc(S(=O)(=O)Nc2ccc3c(c2)C(=O)N([C@H](C)CO)C[C@@H](C)[C@@H](CN(C)C(=O)CCC(F)(F)F)OCCCC[C@@H](C)O3)cc1	-1
CO[C@H]1CC[C@@H]2CCOc3c(C#N)cccc3C(=O)N(C)C[C@H](C)C(=O)N(C)C[C@H]1O2	-1
CCN1[C@@H]2Cn3c(ccc(-c4cccnc4)c3=O)[C@H]1[C@@H](C(=O)NC1CCCCC1)[C@@H]2CO	-1
C[C@@H]1CN([C@H](C)CO)C(=O)c2cc(Br)cnc2O[C@@H]1CN(C)C(=O)Nc1ccc(F)cc1	-1
CCCC#Cc1ccc([C@@H]2[C@@H](C#N)N(C(=O)C3CCC3)[C@H]2CO)cc1	-1
CC(C)C#Cc1ccc([C@@H]2[C@@H](C#N)N(C(=O)C3CC3)[C@@H]2CO)cc1	-1
Cc1ccc(S(=O)(=O)N(C)C[C@@H]2Oc3ncc(-c4cc5ccccc5o4)cc3C(=O)N([C@H](C)CO)C[C@@H]2C)cc1	1
CO[C@H]1CC[C@H]2CCOc3c(C#N)cccc3C(=O)N(C)CC3(CCCCC3)CC(=O)N(C)C[C@@H]1O2	-1
N#C[C@@H]1[C@H](c2ccc(C#Cc3cccc(F)c3)cc2)[C@@H](CO)N1C(=O)C1CCCC1	1
CO[C@H]1CN(C)C(=O)c2ccc(NC(=O)C3CC3)cc2OC[C@H](C)N(CCc2ccccc2)C[C@H]1C	-1
O=C(CN1CCOCC1)NCC[C@H]1CC[C@@H](NC(=O)Nc2ccc(Cl)cc2)[C@@H](CO)O1	-1
COc1ccc(-c2cnc3c(c2)C(=O)N([C@H](C)CO)C[C@H](C)[C@H](CN(C)S(=O)(=O)c2ccccc2)O3)cc1	-1
N#C[C@@H]1[C@@H](c2ccc(C#Cc3cccc(F)c3)cc2)[C@@H](CO)N1C(=O)C1CCC1	1
CNC(=O)C[C@H]1CC[C@H]2[C@@H](COc3ccc(NC(=O)c4cccc(OC)c4)cc3C(=O)N2C)O1	-1
N#C[C@@H]1[C@@H](c2ccccc2)[C@@H](CO)N1C(=O)c1cc(Cl)cc(Cl)c1	-1
COCc1cn(CC[C@H]2CC[C@H](NC(=O)Nc3ccc4c(c3)OCO4)[C@@H](CO)O2)nn1	-1
COCC(=O)Nc1ccc2c(c1)OC[C@H](C)N(C(=O)c1ccccn1)C[C@@H](C)[C@H](OC)CN(C)C2=O	-1
C[C@H](CO)N1C[C@H](C)[C@H](CN(C)S(=O)(=O)c2ccc(F)cc2)Oc2ncc(-c3ccc(F)cc3)cc2C1=O	-1
C/C=C/c1ccc2c(c1)O[C@H](CN(C)C(=O)Cc1ccncc1)[C@@H](C)CN([C@@H](C)CO)S2(=O)=O	-1

----------
Test: T. cruzi intracellular proliferation inhibitors, primary screen, cell-based, beta-gal Tulahuen parasites, NIH3T3 host, luminescence (AID 624255)
Settings: T. cruzi beta-gal in NIH3T3, GalScreen luminescence, 90 h; at 8.34 µM; hits give high values
Out of some 77,000 compounds screened, about 4,600 (6%) were called active. Not shown: some 1% with an inconclusive outcome. The sample holds actives, similar compounds and a random draw of the others, so the mix is not that of the screen.
parameterMeasured: inhibition (%)

smilesRepr	unitLabel	readoutNumber
C[C@@H]1CN([C@H](C)CO)S(=O)(=O)c2ccc(/C=C/c3ccccc3)cc2O[C@@H]1CN(C)Cc1ccccc1	%	81.9
CN1c2ccc(-c3ccccc3F)cc2[C@H]2[C@H](CCN2C(=O)Cc2ccccn2)[C@H]1CO	%	81
COc1cccc(NC(=O)N2CC[C@@H]3[C@@H](CO)N(C)c4ccc(-c5cccc(F)c5)cc4[C@@H]32)c1	%	30.5

----------
Experiment: T. cruzi intracellular proliferation inhibitors, primary screen, cell-based, beta-gal Tulahuen parasites, NIH3T3 host, luminescence (AID 624255)
Conditions: T. cruzi beta-gal in NIH3T3, GalScreen luminescence, 90 h; at 8.34 µM; hits give high values
In all, about 77,000 compounds went through this assay and about 4,600 (6%) were called active. Roughly 1% stayed inconclusive and do not appear here. The list comes from a sample in which actives are over-represented; it also holds close analogues and randomly drawn compounds.

smilesRepr	inhibition
CCCC#Cc1ccc2c(c1)O[C@@H](CN(C)C(=O)CC)[C@@H](C)CN([C@H](C)CO)S2(=O)=O	67% (inactive)
CCCC#Cc1ccc2c(c1)O[C@@H](CN(C)C(=O)CC)[C@H](C)CN([C@H](C)CO)S2(=O)=O	68.6% (inactive)
C[C@H]1CN([C@@H](C)CO)C(=O)c2cc(C3=CCCC3)cnc2O[C@@H]1CN(C)C(=O)c1ccccc1	-4.66% (inactive)
C[C@@H]1CN([C@H](C)CO)S(=O)(=O)c2ccc(C#CCN(C)C)cc2O[C@@H]1CN(C)C(=O)CN(C)C	-40.2% (inactive)

----------
Test: T. cruzi intracellular proliferation inhibitors, primary screen, cell-based, beta-gal Tulahuen parasites, NIH3T3 host, luminescence (AID 624255)
Conditions: T. cruzi beta-gal in NIH3T3, GalScreen luminescence, 90 h; at 8.34 µM
Hit rate of the full screen: of about 77,000 compounds, about 4,600 (6%) were called active. Inconclusive results (about 1%) are left out.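 The calls were made as follows: active = mean inhibition above about 93%, with at least 55% of replicates each passing it (limit read from the data, passing the limit was not always enough); inconclusive = only one of those two conditions holds; inactive = neither condition holds.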 For the sample, actives were picked, then their nearest neighbours and some compounds at random.
Classes used: True (active), False (inactive)

compound	answerLabel
CC(C)C#Cc1ccc([C@@H]2[C@@H](CO)N3CCCCN(C(=O)c4ccc5c(c4)OCO5)C[C@H]23)cc1	False
CC(=O)Nc1ccc2c(c1)C(=O)N(C)[C@H]1CC[C@H](CC(=O)NCc3ccccc3Cl)O[C@H]1CO2	False
C/C=C/c1ccc([C@H]2[C@@H](CNC(C)C)N(c3nc(CC)cs3)[C@H]2CO)cc1	True
N#C[C@H]1[C@@H](c2ccc(C#CC3CCCC3)cc2)[C@H](CO)N1C(=O)Nc1ccc(F)cc1	False
CC(C)NC(=O)N1CCCCN2[C@@H](CO)[C@@H](c3ccc(C#Cc4ccccc4)cc3)[C@@H]2C1	False
N#C[C@@H]1[C@@H](c2ccc(C3=CCCCC3)cc2)[C@@H](CO)N1C(=O)c1cccc(F)c1	False
N#C[C@@H]1[C@@H](c2ccc(C3=CCCC3)cc2)[C@@H](CO)N1C(=O)C1CCCC1	False
COc1ccccc1C#Cc1ccc([C@H]2[C@H](CO)N3CCCCN(C(=O)C4CCC4)C[C@@H]23)cc1	True
CC(C)NC(=O)N1[C@H](C#N)[C@H](c2ccc(C#CC3CCCCC3)cc2)[C@H]1CO	True
CO[C@@H]1CN(C)C(=O)c2ccc(NC(=O)c3ccc(F)cc3)cc2OC[C@H](C)N(C(=O)c2ccc(F)cc2)C[C@@H]1C	False
COC(=O)C[C@@H]1CC[C@@H]2[C@H](COc3ccc(NC(=O)c4ccccc4OC)cc3C(=O)N2C)O1	False
COc1ccccc1-c1ccc2n(c1=O)C[C@H]1[C@H](CO)[C@@H](C(=O)N[C@@H](C)c3ccccc3)[C@@H]2N1C	False
CS(=O)(=O)N1[C@H](C#N)[C@H](c2ccc(C#CC3CCCC3)cc2)[C@H]1CO	False
CC(=O)N1[C@H](CN(CC2CCC2)C(=O)CN(C)C)[C@@H](c2ccccc2)[C@@H]1CO	False
C/C=C/c1ccc([C@H]2[C@@H](CO)N(C(C)=O)[C@H]2CNC(=O)c2ccncc2)cc1	False
CC=Cc1ccc2n(c1=O)C[C@H]1[C@H](CO)[C@@H](C(=O)NC3CCCC3)N(Cc3ccncc3)[C@@H]21 (mixture of isomers)	False
O=C(C[C@@H]1CC[C@@H](NC(=O)Nc2ccc(F)cc2)[C@H](CO)O1)NCCN1CCCC1	False
C[C@H](O)C#Cc1ccc2c(c1)O[C@H](CN(C)C(=O)C1CCCCC1)[C@@H](C)CN([C@H](C)CO)S2(=O)=O	False
CN1c2ccc(-c3ccccc3)cc2[C@@H]2[C@@H](CCN2C(=O)NC2CCCC2)[C@H]1CO	False
COCC(=O)Nc1ccc2c(c1)[C@H]1C[C@H](CC(=O)NCc3ccc(OC)cc3)O[C@@H](CO)[C@H]1O2	False
COc1ccccc1C#Cc1ccc([C@@H]2[C@H](CO)N3CCCCN(C(=O)C4CCCC4)C[C@@H]23)cc1	True
CCc1cnc(N2[C@H](C#N)[C@H](c3ccc(C4=CCCC4)cc3)[C@@H]2CO)s1	True
COC(=O)C[C@@H]1CC[C@@H]2[C@H](COc3ccc(NS(=O)(=O)c4ccccc4F)cc3C(=O)N2C)O1	False
CO[C@@H]1CN(C)C(=O)c2cc(NS(=O)(=O)c3cn(C)cn3)ccc2OC[C@@H](C)NC[C@H]1C	False
CN1C(=O)c2cc(NS(C)(=O)=O)ccc2OC[C@H]2O[C@H](CC(=O)NCc3ccccc3)CC[C@H]21	False
